Values were extracted from the supplement of paper PMC10567573.

- Method notes: protein stability index of a GFP-peptide fusion (GPS, HEK-293T) (PSI 1-6); higher = more stable;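 further: 24-mer peptide tiles fused after GFP, lentivirally expressed, FACS-sorted into six equal bins by GFP/DsRed ratio, decoded by Illumina sequencing, PSI is the read-weighted mean bin number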
- Experimental parameters: treatment: DMSO; c terminus: a fixed tail appended
Measured endpoint: protein stability index
Lab note: write the figure by itself, no unit.

Examples from the recorded data:
Chain | Measured endpoint | Value
LDEGMQIPSTQFDAAHPTNVQRLA [CTNNB1] | protein stability index | 4.73
TAILIECGADVNVRDSDDNSPLHI [FEM1C] | protein stability index | 3.43
SEDRTIRVWLKRDSGQYWPSIYHT [WDFY1] | protein stability index | 2.15
TPKDKRVSNTPLRTVDGSPMMKAA [PALM] | protein stability index | 4.33
LFLPCLLCYPPAKGCLKLCRRCYD [SPRY1] | protein stability index | 2.36
AQDLGELLATAEQEQLSLSQRQAK [LRRC45] | protein stability index | 5.25

*Q* State the recorded protein stability index for this entry: VTASPPTDLIWKNQNSWGTGEDVK [LMNB1]
*A* 4.36

*Q* State the recorded protein stability index for this entry: YSLTTSSTHKSSLCKVEIVCPPQS [RAB40A]
*A* 2.64

*Q* State the recorded protein stability index for this entry: PPAADAPVTQIGFEAPPLQGQAAA [TRIM55]
*A* 5.07

*Q* State the recorded protein stability index for this entry: KETVNVKTVCGYYTSAGTYGLDSV [GMCL1]
*A* 2.48

*Q* State the recorded protein stability index for this entry: PLDVVKVRLQSQRPSMASELMPSS [SLC25A39]
*A* 3.65

*Q* State the recorded protein stability index for this entry: YECGVCAKKFMWRDSFMRHRGHCE [ZBTB22]
*A* 5

*Q* State the recorded protein stability index for this entry: DGSKSLGEENFEVVKQFVTGIIDS [MATN2]
*A* 4.38

----------
- Method notes: protein stability index of a GFP-peptide fusion (GPS, HEK-293T) (PSI 1-6); higher = more stable
- Experimental parameters: treatment: MLN4924 1 uM, 8 h; c terminus: a fixed tail appended
Measured endpoint: protein stability index
Lab note: write the figure by itself, no unit.

Chain | Measured endpoint | Value
RLSVLLNLLPAAGELQESGLALCP [SMG5] | protein stability index | 2.07

*Q* State the recorded protein stability index for this entry: TSLSLAQVGAKGDTANEIGQVLHF [SERPINB5]
*A* 3.18

*Q* State the recorded protein stability index for this entry: FTDCSFFVRGQEFKAHKSVLAARS [SPOPL]
*A* 2.61

*Q* State the recorded protein stability index for this entry: FNDPFFIVETVCIVWFSFEFVVRC [KCNA4]
*A* 3.45

*Q* State the recorded protein stability index for this entry: PPRRSRSRSHDRLPYQRRYRERRD [CLK3]
*A* 4.72

*Q* State the recorded protein stability index for this entry: ARMLSSNERDSSEPGNFIPLFTPQ [CDC25A]
*A* 3.96

*Q* State the recorded protein stability index for this entry: PNAGEQPGQVAGADFESEDEGEEF [EID1]
*A* 5.46

*Q* State the recorded protein stability index for this entry: AALTEALQRQAEQNPTASYYNVVL [FCHO1]
*A* 2.21

*Q* State the recorded protein stability index for this entry: CGGSGGGGGGGGGGGGCSSGSSYC [LURAP1L]
*A* 3.22

*Q* State the recorded protein stability index for this entry: VLASFILDDGEIDEIRWKYHSDTT [IQUB]
*A* 2.18

*Q* State the recorded protein stability index for this entry: YTSSQKVSPIQIDGAGRTWQDSDT [TOR1AIP2]
*A* 4.2

*Q* State the recorded protein stability index for this entry: PPDSKEGIVVESNHDSHMAKERAH [PDZK1]
*A* 5.55

*Q* State the recorded protein stability index for this entry: KLFSTYLRPPHTSRGTSQTPNASS [LPCAT4]
*A* 3.08

----------
- Method notes: protein stability index of a GFP-peptide fusion (GPS, HEK-293T) (PSI 1-6); higher = more stable
- Experimental parameters: treatment: DMSO; c terminus: a fixed tail appended
# protein stability index per entry

Examples from the recorded data:
Chain | protein stability index
LPACEFEMGGSEGIVESIQIMKEG [NETO1] | 4.92
LSLSNATVLTRSLFLGRILSLTSS [FANCE] | 3.06
LMSDLRRKRTAHERAKELYSSGEF [INTS4] | 3.54

*Q* State the recorded protein stability index for this entry: FAAEAGHIDIVKELIKWRAAIVVN [FEM1B]
*A* 2.3

*Q* State the recorded protein stability index for this entry: LPSWAELLRPKYRAPQGCSGVDEC [PBXIP1]
*A* 2.83

*Q* State the recorded protein stability index for this entry: RERDSVPKPSVLFLHPDLGVGGAE [ALG2]
*A* 4.08

*Q* State the recorded protein stability index for this entry: FHVDSAAEYYRLHLEGYHGTAGDS [TNXB]
*A* 2.81

*Q* State the recorded protein stability index for this entry: SWASAQVQILCHTYWEHWTSQGQV [RTP4]
*A* 2.8

*Q* State the recorded protein stability index for this entry: EPCGPGKSKLTYMCRVDLRGHMPE [DLC1]
*A* 2.45

*Q* State the recorded protein stability index for this entry: TVCDPARSCAIVEDDGLQSAFTAA [ADAMTS4]
*A* 3.6

*Q* State the recorded protein stability index for this entry: DESAIDFSAYIDSMAAVPTLELCH [CEBPD]
*A* 3.17

*Q* State the recorded protein stability index for this entry: EWENNRESLIVFMEQVHRGIKGLV [CPXM2]
*A* 2.27

*Q* State the recorded protein stability index for this entry: RYTFAPSVSLNKTARPFGAPPPAD [PDLIM7]
*A* 3.34

----------
# protein stability index per entry
- Method notes: protein stability index of a GFP-peptide fusion (GPS, HEK-293T) (PSI 1-6); higher = more stable
- Experimental parameters: treatment: DMSO; c terminus: a fixed tail appended
Lab note: write the figure by itself, no unit.

Examples from the recorded data:
Chain | protein stability index
PADCKRKEEAGAPGGGAGMAAGFP [CEBPB] | 5.12
VELHYEEGSPRNLGTPTSSTPRPS [C2CD2L] | 4.63
TAFAPKMIVDLLSEKKTISFQGCM [OR4A15] | 2.08

Please look at the following sequence next.
*Q* State the recorded protein stability index for this entry: KLEAEKRILQEKLDQPVSAPPSPR [CCDC6]
*A* 5.24

----------
- Method notes: protein stability index of a GFP-peptide fusion (GPS, HEK-293T) (PSI 1-6); higher = more stable
- Experimental parameters: treatment: MLN4924 1 uM, 8 h; c terminus: a fixed tail appended
# protein stability index per entry
Lab note: write the figure by itself, no unit.

Chain | Measured endpoint | Value
LYLKQSDLASAAAKQIMEETYKME [INTS4] | protein stability index | 3.3
EELQSWVRGHHPKSGEEAVTVLED [ZNF232] | protein stability index | 5.07
GEDQAFGDWLLTANGSEIHKHVHF [SLC22A15] | protein stability index | 3.09
SRQIPAPQGAVLVQREKDLPNYNW [KISS1] | protein stability index | 3.79
NVLGAQLDVEAAHSEILKYFQSVT [STX5] | protein stability index | 2.88

*Q* State the recorded protein stability index for this entry: NNSIKDLTDGHFENILADNSVNDQ [SERPINB5]
*A* 5.26

*Q* State the recorded protein stability index for this entry: SADMDESDEDDEEERRRRVFDVPI [FBXO3]
*A* 5.35

----------
- Method notes: protein stability index of a GFP-peptide fusion (GPS, HEK-293T) (PSI 1-6); higher = more stable
- Experimental parameters: treatment: MLN4924 1 uM, 8 h; c terminus: a fixed tail appended
Measured endpoint: protein stability index
Lab note: write the figure by itself, no unit.

Chain | Value
YIGFYGKETTNTCILKCNLCSVNI [PDS5B] | 2.96
AVVHEYALAVCLSFFYPVLFVLFM [SOAT1] | 3.02
DKMEAYNIDETCGRHHSQSTEVQA [TEKT4] | 4.9
NEEETPSCMASLWTAPLVMRTTNL [CDC25A] | 3.3

Please look at the following sequence next.
*Q* State the recorded protein stability index for this entry: KPANILLDAHYHVKISDFGLAKCN [RIPK4]
*A* 2.49

----------
- Method notes: protein stability index of a GFP-peptide fusion (GPS, HEK-293T) (PSI 1-6); higher = more stable
- Experimental parameters: treatment: MLN4924 1 uM, 8 h; c terminus: a fixed tail appended
# protein stability index per entry
Lab note: write the figure by itself, no unit.

Examples from the recorded data:
Chain | protein stability index
PPLRVIVKDALFCSCLSDILRFIY [RHOBTB3] | 2.84
KKRYEEEINKRTAAENEFVLLKKD [KRT71] | 4.99
YSRGYRNRRSSRETREYAPPSRGH [RBMY1A1] | 4.76
LIERERSALGPNVTKITLESFLAW [ZC3H15] | 2.49

*Q* State the recorded protein stability index for this entry: LDVDTAAGGFQQRQGLKYCLPLTF [FBXO3]
*A* 2.22

*Q* State the recorded protein stability index for this entry: NFGEFKCSDSDKKCHLWTAMDLGF [CLCN6]
*A* 2.34

*Q* State the recorded protein stability index for this entry: NNEIPDCYTFSVLITFDNKAHSGR [MCOLN1]
*A* 2.42

*Q* State the recorded protein stability index for this entry: LHEVLTEVVPIHGRGNFPTLEITL [TENT5C]
*A* 2.53

*Q* State the recorded protein stability index for this entry: VAMDTEFPGVVARPIGEFRSNADY [CNOT7]
*A* 3.78

*Q* State the recorded protein stability index for this entry: NNQYSEGVQREAQRIALRLGNGND [KMT2E]
*A* 4.63

*Q* State the recorded protein stability index for this entry: TSEDLRLQCDAVNLAFGRRCEELE [TEKT4]
*A* 4.71

*Q* State the recorded protein stability index for this entry: VTASPPTDLIWKNQNSWGTGEDVK [LMNB1]
*A* 4.37

*Q* State the recorded protein stability index for this entry: VQYLQHLGTENLHLIFSYSVWVLR [VPS39]
*A* 2.96

*Q* State the recorded protein stability index for this entry: GKDCFLELAPDFVGDILWEHLEIL [ETS1]
*A* 2.05

*Q* State the recorded protein stability index for this entry: RAVNSLSMENANQENEEKEQVANK [BEX1]
*A* 5.5

*Q* State the recorded protein stability index for this entry: HILASAPTDRNLCHFQALGCRTTH [PYCR3]
*A* 2.23

*Q* State the recorded protein stability index for this entry: LYDLRADREVAIYSKESIIFGASS [GNB5]
*A* 2.72

*Q* State the recorded protein stability index for this entry: EGNQKGEQATSLAILRVIRLVRVF [KCNA1]
*A* 2.28

*Q* State the recorded protein stability index for this entry: SSCFFIESCGAQVPVEGSRRETSI
*A* 2.79

*Q* State the recorded protein stability index for this entry: LFEEEDHVKKLQQKVATLEKRNRQ [CCDC3]
*A* 4.68
